B1: ZNF277 (parent)
chain: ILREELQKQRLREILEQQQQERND

Variants of: B1
assay_details: protein stability index of a GFP-peptide fusion (GPS, HEK-293T) (PSI 1-6); higher = more stable;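 further: lentivirally expressed fusions sorted by FACS into six bins by GFP to DsRed ratio, PSI derived from sequencing read proportions per bin multiplied by bin number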
assay_context: c terminus: a fixed tail appended
Below, each entry is listed with its recorded protein stability index.
Keep it simple and answer with nothing but the number.

Below, each entry is followed by its recorded protein stability index result.
ILREELQKQRLREILPQQQQERND [E16P]; 4.8
ILREELQKQRLIEILEQQQQERND [R12I]; 4.15
ILREELQKQRLREILESQQQERND [Q17S]; 4.63
IFREELQKQRLREILEQQQQERND [L2F]; 4.55
ILREELQKQRMREILEQQQQERND [L11M]; 4.91
ILREELQKQRLREILEQQQQERNR [D24R]; 3.48

In plain terms, PLREELQKQRLREILEQQQQERND [I1P] has a documented protein stability index of 4.73

In plain terms, ILREELQKQRLREILEQQQQEDND [R22D] has a documented protein stability index of 4.92

In plain terms, ILREELQKQRLREILEQQQQEYND [R22Y] has a documented protein stability index of 4.54

The measured values listed here are drawn from the supplement of paper PMC10567573.
